assay system: T1, human neuropeptide Y2 receptor (human, UniProt P49146 1-381)
T1 sequence (looked up): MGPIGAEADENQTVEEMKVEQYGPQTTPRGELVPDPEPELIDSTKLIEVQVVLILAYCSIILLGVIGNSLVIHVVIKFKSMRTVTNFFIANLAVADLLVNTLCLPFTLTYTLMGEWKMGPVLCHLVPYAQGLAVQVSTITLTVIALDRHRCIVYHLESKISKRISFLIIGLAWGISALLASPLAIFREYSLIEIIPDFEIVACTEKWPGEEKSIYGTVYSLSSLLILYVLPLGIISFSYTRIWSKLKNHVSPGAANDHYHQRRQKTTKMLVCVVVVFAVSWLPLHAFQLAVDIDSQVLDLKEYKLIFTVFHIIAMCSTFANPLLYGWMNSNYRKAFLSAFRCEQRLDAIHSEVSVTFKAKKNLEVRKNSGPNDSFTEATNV
procedure details: cell-based or functional assay
Starred links: 1 amine or outer side, 2 acyl side, 3 side chain; linkers in the order of their positions; H or OH if unused. Non-standard residues stand in square brackets, D forms with d. Groups on a side chain read outwards from the residue. No end group written: not given here. *: point of attachment. C18 diacid = O=C(O)CCCCCCCCCCCCCCCCC(=O)*; γGlu = O=C(O)[C@H](CCC(=O)[*:2])N[*:1]; εLys = N[C@@H](CCCCN[*:1])C(=O)[*:2]; AEEA = NCCOCCOCC(=O)O; Aib = CC(C)(N)C(=O)O

- binder: "YXEGTFTSDYSIXLEKQAQXAFVEWLIKGGPSEYESLRHYYNWLTRQRY (Aib at 2, 13, 20; K28 side chain: C20DA-gGlu-gGlu-gGlu-gGlu-gGlu-gGlu-eLys; C-terminal NH2) [Compound 93]"
  unit spec: "nM"
  EC50 CreLuc hNPY2R 0.5% hP: 15.3
- binder: "Y[Aib]EGTFTSDYSI[Aib]LEKQAQ[Aib]AFVQWLIK([AEEA-AEEA-γGlu-γGlu-γGlu-γGlu-C18 diacid])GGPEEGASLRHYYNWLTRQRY-NH2 [Compound 146]"
  unit spec: "nM"
  EC50 CreLuc hNPY2R 0.5% hP: 14
- binder: "YXEGTFTSDYSIXLERQAQXAFVEWLIKGGPSSGASLRHYYNWLTRQRY (Aib at 2, 13, 20; K28 side chain: C20DA-gGlu-gGlu-gGlu-gGlu-gGlu-gGlu-eLys; C-terminal NH2) [Compound 131]"
  unit spec: "nM"
  EC50 CreLuc hNPY2R 0.5% hP: 18.2
- binder: "YXEGTFTSDYSIXLEDQAQXAFVEWLIKGGPSSGASLRHYYNWLTRQRY (Aib at 2, 13, 20; K28 side chain: C20DA-gGlu-gGlu-gGlu-gGlu-gGlu-gGlu-eLys; C-terminal NH2) [Compound 90]"
  unit spec: "nM"
  EC50 CreLuc hNPY2R 0.5% hP: 18.4
- binder: "YXEGTFTSDYSIXLEKQAQXAFVEWLIKGGPSSGASLRHYXNWLTRQRY (Aib at 2, 13, 20; Tle at 41; K28 side chain: C20DA-gGlu-gGlu-gGlu-gGlu-gGlu-gGlu-eLys; C-terminal NH2) [Compound 133]"
  unit spec: "nM"
  EC50 CreLuc hNPY2R 0.5% hP: 14.1
- binder: "YXEGTFTSDYSIXLEKQAQXAFVEWLIKGGPSSGATLRHYYNWLTRQRY (Aib at 2, 13, 20; K28 side chain: C20DA-gGlu-gGlu-gGlu-gGlu-gGlu-gGlu-eLys; C-terminal NH2) [Compound 91]"
  unit spec: "nM"
  EC50 CreLuc hNPY2R 0.5% hP: 16.2
- binder: "YXEGTFTSDYSIXLEKQAQXAFVEWLIKGGPSSGISLRHYYNWLTRQRY (Aib at 2, 13, 20; K28 side chain: C20DA-gGlu-gGlu-gGlu-gGlu-gGlu-gGlu-eLys; C-terminal NH2) [Compound 94]"
  unit spec: "nM"
  EC50 CreLuc hNPY2R 0.5% hP: 12.3
- binder: "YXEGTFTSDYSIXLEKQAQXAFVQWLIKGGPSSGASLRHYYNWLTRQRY (Aib at 2, 13, 20; K28 side chain: C18DA-gGlu-gGlu-gGlu-gGlu-gGlu-gGlu-eLys; C-terminal NH2) [Compound 170]"
  unit spec: "nM"
  EC50 CreLuc hNPY2R 0.5% hP: 19.2
- binder: "Y[Aib]EGTFTSDYSI[Aib]LEKQAQ[Aib]EFVEWLIK([εLys-γGlu-γGlu-γGlu-γGlu-γGlu-C18 diacid])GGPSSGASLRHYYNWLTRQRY-NH2 [Compound 159]"
  unit spec: "nM"
  EC50 CreLuc hNPY2R 0.5% hP: 13.8
- binder: "Y[Aib]EGTFTSDYSI[Aib]LEKQAQ[Aib]AFVEWLIK([AEEA-AEEA-γGlu-γGlu-γGlu-γGlu-C18 diacid])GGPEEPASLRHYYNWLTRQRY-NH2 [Compound 161]"
  unit spec: "nM"
  EC50 CreLuc hNPY2R 0.5% hP: 11.5

Cited source for all entries: patent US20240247080A1
